Ref: PubChem BioAssay AID1963449

Please respond with reported viability, T/C for every item in the list.
- Tested on: 596521-263-R-J1-PDC complex spheroid growth;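 further: spheroids exposed to compounds for 7 days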
- Experimental protocol: Anticancer human tumor 596521-263-R-J1-PDC patient-derived soft tissue sarcoma cell line growth inhibition [Asc]
- Experimental context: second compound 0.949 µM; first compound 0.01 µM; hits give low values

{"columns": ["Compound", "Assay target", "viability, T/C"],
 "data": [
  ["O=C(c1ccc(F)c(F)c1Nc1ccc(I)cc1F)N1CC(O)([C@@H]2CCCCN2)C1 + CCN1C(C(=O)NC23CCC(C(=O)O)(CC2)CC3)C(c2cccc(Cl)c2F)C2(C(=O)Nc3cc(Cl)ccc32)C12CCCCC2", "596521-263-R-J1-PDC complex spheroid growth", "99.8%"],
  ["NC1CCC(NC2CC2c2ccccc2)CC1 (stereo unspecified) + CCN1C(C(=O)NC23CCC(C(=O)O)(CC2)CC3)C(c2cccc(Cl)c2F)C2(C(=O)Nc3cc(Cl)ccc32)C12CCCCC2", "596521-263-R-J1-PDC complex spheroid growth", "97.3%"],
  ["CNC(C)C(=O)NC1CN(S(=O)(=O)c2cccc(S(=O)(=O)N3CCC4CCC(C(=O)NC(c5ccccc5)c5ccccc5)N4C(=O)C(NC(=O)C(C)NC)C3)c2)CCC2CCC(C(=O)NC(c3ccccc3)c3ccccc3)N2C1=O (stereo unspecified) + CCN1C(C(=O)NC23CCC(C(=O)O)(CC2)CC3)C(c2cccc(Cl)c2F)C2(C(=O)Nc3cc(Cl)ccc32)C12CCCCC2", "596521-263-R-J1-PDC complex spheroid growth", "90.2%"],
  ["COc1c(OCCCN2CCOCC2)ccc2c3n(c(=NC(=O)c4cnc(N)nc4)nc12)CCN3 + CCN1C(C(=O)NC23CCC(C(=O)O)(CC2)CC3)C(c2cccc(Cl)c2F)C2(C(=O)Nc3cc(Cl)ccc32)C12CCCCC2", "596521-263-R-J1-PDC complex spheroid growth", "97.3%"],
  ["Cn1ncnc1[C@H]1c2n[nH]c(=O)c3cc(F)cc(c23)N[C@@H]1c1ccc(F)cc1 + CCN1C(C(=O)NC23CCC(C(=O)O)(CC2)CC3)C(c2cccc(Cl)c2F)C2(C(=O)Nc3cc(Cl)ccc32)C12CCCCC2", "596521-263-R-J1-PDC complex spheroid growth", "92.4%"]
]}

Okay, next one:
Kindly note: 596521-263-R-J1-PDC complex spheroid growth, CCN1CCN(Cc2ccc(Nc3ncc(F)c(-c4cc(F)c5nc(C)n(C(C)C)c5c4)n3)nc2)CC1 + CCN1C(C(=O)NC23CCC(C(=O)O)(CC2)CC3)C(c2cccc(Cl)c2F)C2(C(=O)Nc3cc(Cl)ccc32)C12CCCCC2 , viability, T/C value reported: 93.2%
